Tested on: HS 578T breast
RUN DESCRIPTION: NCI tumour cell line growth inhibition, 48 h
Record form. Attribute: TGI. Fill in for each entry.

Worked set:
• Cc1cccc2[nH]c3cc(O)cc(O)c3c(=O)c12 = > 10 µM
• O=C1c2cccc3cccc(c23)C(=O)N1CCCNCCCCNCCCN1C(=O)c2cccc3cccc(c23)C1=O = 0.216 µM
• C[C@]12CCC3c4ccc(O)cc4CC[C@H]3C1CC(=O)N(N)C2=O (some centres undefined) = > 100 µM
• Cc1oc2nc[nH]c(=O)c2c1C(=O)/C=C/c1ccc(Cl)cc1 = > 100 µM

Can you give me TGI for all of these, one by one?
1. Cn1cc(C2=C(c3c4n(c5ccccc35)CCCC4)C(=O)NC2=O)c2ccccc21
2. COc1ccc(C[n+]2c3ccccc3n3c4ccc(N)cc4ccc32)c(OC)c1OC
3. C/C(=N/NC(=O)c1ccncc1)c1ccc(NC(=O)C(=O)Nn2c(=S)[nH]c3ccccc3c2=O)cc1

> 25 µM
35.2 µM
> 100 µM

Can you give me TGI for all of these, one by one?
1. CC(C)(N)CO[C@H]1C[C@H]2CC[C@@]1(C)C2(C)C
2. C=C1C(=O)O[C@H]2[C@H]1CC/C(Cn1cc(CNCCc3c[nH]c4ccc(Cl)cc34)nn1)=C\CC[C@@]1(C)O[C@@H]21
3. CC(=O)Nc1ccc(-c2c3nc(c(-c4cc5ccccc5[n+](C)c4)c4ccc([nH]4)c(-c4ccc(NC(C)=O)cc4)c4nc(c(-c5cc6ccccc6[n+](C)c5)c5ccc2[nH]5)C=C4)C=C3)cc1
4. N#CC(C#N)=Cc1c(-c2ccccc2)[nH]c2ccccc12

79 µM
53.1 µM
> 50 µM
8.49 µM
